Readings of LD50 for the listed molecules
Test: Lethal dose against Plasmodium vinckei in mice (Mus musculus) after intraperitoneal administration
Format: toxicity
Settings: in vivo, ip
Enter your answer as a number in mg/kg; do not include the unit.

[ask] Would you mind telling me what LD50 value was observed for COCCc1sc[n+](CCCCCCCCCCCC[n+]2csc(CCOC)c2C)c1C.[I-].[I-] ?
[reply] 1.2

// switching to the query molecule
[ask] Would you mind telling me what LD50 value was observed for Cc1c(CCO)sc[n+]1CCCCCCCCCCCC[n+]1csc(CCO)c1C.[I-].[I-] ?
[reply] 1.2

###

System: Plasmodium falciparum
Test: In vitro inhibition of Plasmodium falciparum
Format: functional, organism-based
MEASURED_QUANTITY: pIC50
Interpret pIC50 as the negative base-10 log of the concentration measured in mol/L.

[ask] Would you mind telling me what pIC50 value was observed for CC(=O)OCCc1sc[n+](CCCCCCCCCCCC[n+]2csc(CCOC(C)=O)c2C)c1C.[I-].[I-] ?
[reply] 8.51

---
[ask] Would you mind telling me what pIC50 value was observed for COCCc1sc[n+](CCCCCCCCCCCC[n+]2csc(CCOC)c2C)c1C.[I-].[I-] ?
[reply] 9.19

[ask] Repeat for the following molecule: COCCc1sc[n+](CCCCCCCCCCCCCCCC[n+]2csc(CCOC)c2C)c1C
[reply] 8.96

[ask] Repeat for the following molecule: CCOC(=O)Cc1c(CCCCCCCCCCCCc2sc[n+](Cc3ccccc3)c2CC(=O)OCC)sc[n+]1Cc1ccccc1
[reply] 6.60

[ask] Repeat for the following molecule: Cc1c(CCO)sc[n+]1CCCCCCCCCC[n+]1csc(CCO)c1C
[reply] 7.47

[ask] Repeat for the following molecule: COCCc1sc[n+](CCCCCCCC[n+]2csc(CCOC)c2C)c1C
[reply] 7.06

###

Readings of pIC50 for the listed molecules
Test system: Plasmodium falciparum
Test: In vitro inhibition of Plasmodium falciparum
Assay type: functional, organism-based
Interpret pIC50 as the negative base-10 log of the concentration measured in mol/L.

Guide cases for pIC50, answers given:
[ask] Please tell me: pIC50 of C[N+]1(CCCCCCCCCCCCCCCC[N+]2(C)CCCC2)CCCC1.[Br-].[Br-] , system Plasmodium falciparum?
[reply] 9.19

[ask] Repeat for the following molecule: c1ccc(-c2csc[n+]2CCCCCCCCCCCC[n+]2cscc2-c2ccccc2)cc1
[reply] 5.74

[ask] Repeat for the following molecule: Cc1sc[n+](CCCCCCCCCCCC[n+]2csc(C)c2C)c1C.[I-].[I-]
[reply] 8.82

[ask] Repeat for the following molecule: CCc1sc[n+](CCCCCCCCCCCC[n+]2csc(CC)c2C)c1C.[I-].[I-]
[reply] 8.80

[ask] Repeat for the following molecule: CCCCCCCCCCCC[n+]1csc(CCO)c1C
[reply] 7.15

// switching to the query molecule
[ask] Please tell me: pIC50 of CCCCCCCCCCCC[n+]1csc(CCOC)c1C , system Plasmodium falciparum?
[reply] 7.12

###

System: Plasmodium falciparum
Assay: In vitro inhibition of Plasmodium falciparum
Assay type: functional, organism-based
pIC50: −log10 of the molar value.
Classify as follows. Reported pIC50 greater than or equal to 8: condition met. Reported pIC50 below: condition not met.

[ask] Hello, I need to know if Cc1c(CCOCCCCCCOCCc2sc[n+](C)c2C)sc[n+]1C has measured pIC50 not below 8. Thanks!
[reply] condition not met

[ask] Repeat for the following compound: CCOCCc1sc[n+](CCCCCCCCCCCC[n+]2csc(CCOCC)c2C)c1C
[reply] condition met

[ask] Repeat for the following compound: Cc1c(CCOCCCCCCOCCc2sc[n+](Cc3ccccc3)c2C)sc[n+]1Cc1ccccc1
[reply] condition not met

[ask] Repeat for the following compound: Cc1c(CCO)sc[n+]1CCCCCCCCCCCC[n+]1csc(CCO)c1C.[I-].[I-]
[reply] condition met

[ask] Repeat for the following compound: COC(=O)CCC(=O)OCCc1sc[n+](CCCCCCCCCCCC[n+]2csc(CCOC(=O)CCC(=O)OC)c2C)c1C.[I-].[I-]
[reply] condition met

---
[ask] Hello, I need to know if COCCc1sc[n+](CCCCc2ccc(CCCC[n+]3csc(CCOC)c3C)cc2)c1C has measured pIC50 not below 8. Thanks!
[reply] condition met

[ask] Repeat for the following compound: Cc1c(CCOC(C)C)sc[n+]1CCCCCCCCCCCC[n+]1csc(CCOC(C)C)c1C
[reply] condition met
